Biological target: T1, recombinant hAng-2 (C-His, R&D Systems) (human, UniProt O15123 19-496)
T1 construct: Bought protein; also called human Ang-2 protein; C-terminal histidine-tagged human Ang2 (R&D Systems); not shown: C-terminal His tag
T1 sequence: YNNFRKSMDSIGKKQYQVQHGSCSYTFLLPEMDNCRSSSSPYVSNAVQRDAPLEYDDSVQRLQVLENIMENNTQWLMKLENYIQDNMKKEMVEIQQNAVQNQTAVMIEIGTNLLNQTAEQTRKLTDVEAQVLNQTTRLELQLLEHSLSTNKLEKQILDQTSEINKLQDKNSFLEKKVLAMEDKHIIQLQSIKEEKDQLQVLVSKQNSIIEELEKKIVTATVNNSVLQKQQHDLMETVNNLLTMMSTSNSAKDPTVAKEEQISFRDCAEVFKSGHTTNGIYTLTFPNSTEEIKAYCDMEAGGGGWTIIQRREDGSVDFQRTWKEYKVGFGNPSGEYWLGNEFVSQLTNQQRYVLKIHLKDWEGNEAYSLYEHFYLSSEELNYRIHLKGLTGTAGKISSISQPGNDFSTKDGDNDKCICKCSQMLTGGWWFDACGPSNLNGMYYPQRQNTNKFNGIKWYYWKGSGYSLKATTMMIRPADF
Assay: SPR, BIAcore T100; hAng2 (C-His) captured by anti-His antibody on CM5, antibody as analyte

>  <BINDER>
h10D6-OPTI-55 (antibody, human IgG1, V domains shown) VH: QVQLQESGPGLVKPSETLSLTCAVSGYSITSDYAWNWIRQPPGKGLEWMGKINYAGNTDYNPSLKSRSTISRDTSKNQFSLKLSSVTAADTAVYYCARGNFEGAMDYWGQGTLVTVSS VL: DIQMTQSPSSLSASVGDRVTITCKASQSVSNDVHWYQQKPGKAPKLLIYYASNRYPGVPSRFSGSGSGTDFTLTISSLQPEDFATYYCQQDYSSPWTFGQGTKLEIK

>  <Kd (nM)>
0.14

$$$$
>  <BINDER>
h10D6-OPTI-43 (antibody, human IgG1, V domains shown) VH: QVQLQESGPGLVKPSETLSLTCAVSGYSITSDYAWNWIRQPPGKGLEWMGKISYSGKTDYNPSLKSRSTISRDTSKNQFSLKLSSVTAADTAVYYCARGNFEGAMDYWGQGTLVTVSS VL: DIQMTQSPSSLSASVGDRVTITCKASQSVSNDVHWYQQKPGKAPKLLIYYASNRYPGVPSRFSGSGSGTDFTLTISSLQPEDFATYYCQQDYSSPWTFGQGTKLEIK

>  <Kd (nM)>
0.38

$$$$
>  <BINDER>
h10D6-OPTI-4 (antibody, human IgG1, V domains shown) VH: EVQLVESGGGLVQPGGSLRLSCAASGYSITSDYAWNWVRQAPGKGLEWMGKINYAGNTDYNPSLKSRSTISRDTSKNTFYLQMNSLRAEDTAVYYCARGNFEGAMDYWGQGTLVTVSS VL: DIQMTQSPSSLSASVGDRVTITCKASQSVSNDVAWYQQKPGKAPKLLIYYASNRYPGVPSRFSGSGSGTDFTLTISSLQPEDFATYYCQQDYSSPWTFGQGTKLEIK

>  <Kd (nM)>
0.33

$$$$
>  <BINDER>
h10D6-OPTI-1 (antibody, human IgG1, V domains shown) VH: QVQLQESGPGLVKPSETLSLTCAVSGYSITSDYAWNWIRQPPGKGLEWMGKISYSGKTDYNPSLKSRSTISRDTSKNQFSLKLSSVTAADTAVYYCARGNFEGAMDYWGQGTLVTVSS VL: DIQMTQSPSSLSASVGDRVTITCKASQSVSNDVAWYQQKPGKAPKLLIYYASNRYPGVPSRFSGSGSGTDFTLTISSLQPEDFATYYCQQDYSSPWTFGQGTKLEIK

>  <Kd (nM)>
0.68

$$$$
>  <BINDER>
10D6-HU2 (antibody, V domains shown, Humanized antibody; also called humanized antibody 10D6-HU2) VH: QVQLQESGPGLVKPSETLSLTCAVSGYSITSDYAWNWIRQPPGKGLEWMGYINYSGNTDYNPSLKSRSTISRDTSKNQFSLKLSSVTAADTAVYYCARGNFEGAMDYWGQGTLVTVSS VL: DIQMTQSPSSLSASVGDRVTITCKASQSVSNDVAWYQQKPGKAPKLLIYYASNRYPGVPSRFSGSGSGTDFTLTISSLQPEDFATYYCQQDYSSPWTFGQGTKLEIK

>  <Kd (nM)>
47

$$$$

Measured values drawn from patent US20160053025A1 for this set.
